molecular target: 4-aminobutyrate aminotransferase, mitochondrial (Bos taurus, UniProt Q9BGI0)
Sequence (Q9BGI0 whole entry): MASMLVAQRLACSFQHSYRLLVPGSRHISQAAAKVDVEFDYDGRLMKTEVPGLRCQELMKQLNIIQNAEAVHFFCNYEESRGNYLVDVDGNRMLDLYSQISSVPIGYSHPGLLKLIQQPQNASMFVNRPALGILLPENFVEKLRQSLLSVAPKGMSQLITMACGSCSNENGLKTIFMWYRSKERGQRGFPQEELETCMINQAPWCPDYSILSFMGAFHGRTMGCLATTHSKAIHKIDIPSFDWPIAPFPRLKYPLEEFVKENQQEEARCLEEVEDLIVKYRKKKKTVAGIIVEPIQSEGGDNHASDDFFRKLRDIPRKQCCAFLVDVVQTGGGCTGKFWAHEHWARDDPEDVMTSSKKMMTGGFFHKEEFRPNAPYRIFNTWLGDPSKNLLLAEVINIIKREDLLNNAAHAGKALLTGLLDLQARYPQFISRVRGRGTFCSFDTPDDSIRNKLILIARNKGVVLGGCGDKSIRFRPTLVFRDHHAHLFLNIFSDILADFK
measure_name: Ki

Summary line: COc1ccccc1N1CCN(CCCCn2ncc(=O)n(C)c2=O)CC1 , 4-aminobutyrate aminotransferase, mitochondrial (Bos taurus, UniProt Q9BGI0), reported Ki = > 10 µM

* * *

target: Sodium-dependent noradrenaline transporter (Bos taurus, UniProt P51143)
Sequence (P51143 whole entry): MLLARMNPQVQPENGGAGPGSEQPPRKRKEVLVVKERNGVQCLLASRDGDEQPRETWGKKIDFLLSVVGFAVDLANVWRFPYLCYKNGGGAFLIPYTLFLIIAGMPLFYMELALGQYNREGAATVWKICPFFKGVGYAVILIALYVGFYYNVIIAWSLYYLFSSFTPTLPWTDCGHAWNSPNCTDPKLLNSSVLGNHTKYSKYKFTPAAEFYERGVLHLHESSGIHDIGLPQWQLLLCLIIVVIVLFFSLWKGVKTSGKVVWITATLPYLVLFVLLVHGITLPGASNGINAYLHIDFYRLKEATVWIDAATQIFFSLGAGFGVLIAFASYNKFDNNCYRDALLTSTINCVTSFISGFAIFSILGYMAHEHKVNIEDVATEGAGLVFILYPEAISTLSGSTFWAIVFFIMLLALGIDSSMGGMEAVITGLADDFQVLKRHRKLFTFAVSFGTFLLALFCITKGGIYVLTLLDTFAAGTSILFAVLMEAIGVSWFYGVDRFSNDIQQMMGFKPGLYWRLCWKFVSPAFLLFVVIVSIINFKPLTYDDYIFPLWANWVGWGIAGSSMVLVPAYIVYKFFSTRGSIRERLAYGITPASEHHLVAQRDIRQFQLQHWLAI
measure_name: Ki

Summary line: COc1ccccc1N1CCN(CCCCn2ncc(=O)n(C)c2=O)CC1 [NSC_11603174] , Sodium-dependent noradrenaline transporter (Bos taurus, UniProt P51143), reported Ki = > 10 µM

* * *

target: Mu-type opioid receptor (Bos taurus, UniProt P79350)
Sequence (P79350 whole entry): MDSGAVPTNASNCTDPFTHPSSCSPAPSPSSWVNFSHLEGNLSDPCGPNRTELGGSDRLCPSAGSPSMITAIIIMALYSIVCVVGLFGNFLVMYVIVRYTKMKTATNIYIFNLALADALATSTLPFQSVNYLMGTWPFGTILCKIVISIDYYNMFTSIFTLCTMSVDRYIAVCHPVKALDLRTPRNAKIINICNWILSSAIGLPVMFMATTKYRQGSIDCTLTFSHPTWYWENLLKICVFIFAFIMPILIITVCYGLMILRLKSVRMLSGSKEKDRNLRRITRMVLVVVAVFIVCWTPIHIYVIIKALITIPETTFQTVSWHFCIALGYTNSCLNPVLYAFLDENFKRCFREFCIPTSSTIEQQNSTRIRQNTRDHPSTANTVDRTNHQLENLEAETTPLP
pKi: −log10 of the molar value.
measure_name: pKi

Summary line: COc1ccccc1N1CCN(CCCCn2ncc(=O)n(C)c2=O)CC1 [NSC_11603174] , Mu-type opioid receptor (Bos taurus, UniProt P79350), reported pKi = < 5.00

* * *

biological target: Beta-arrestin-1 (Bos taurus, UniProt P17870)
Sequence (P17870 whole entry): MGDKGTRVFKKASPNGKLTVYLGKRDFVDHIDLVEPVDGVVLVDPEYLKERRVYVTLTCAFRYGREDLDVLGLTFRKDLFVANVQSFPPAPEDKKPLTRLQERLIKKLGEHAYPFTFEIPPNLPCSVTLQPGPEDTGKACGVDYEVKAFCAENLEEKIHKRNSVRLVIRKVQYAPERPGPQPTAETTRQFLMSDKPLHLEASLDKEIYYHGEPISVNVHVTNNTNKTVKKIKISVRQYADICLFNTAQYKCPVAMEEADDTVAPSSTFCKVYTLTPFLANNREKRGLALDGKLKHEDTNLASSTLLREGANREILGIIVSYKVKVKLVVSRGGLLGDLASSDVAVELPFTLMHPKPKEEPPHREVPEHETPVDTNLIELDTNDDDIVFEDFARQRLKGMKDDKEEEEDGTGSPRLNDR
pKi: −log10 of the molar value.
measure_name: pKi

What the record says about COc1ccccc1N1CCN(CCCCn2ncc(=O)n(C)c2=O)CC1 [NSC_11603174] : pKi is < 5.00

* * *

biological target: 5-hydroxytryptamine receptor 2B (Bos taurus, UniProt Q8MI09)
Sequence (Q8MI09 whole entry): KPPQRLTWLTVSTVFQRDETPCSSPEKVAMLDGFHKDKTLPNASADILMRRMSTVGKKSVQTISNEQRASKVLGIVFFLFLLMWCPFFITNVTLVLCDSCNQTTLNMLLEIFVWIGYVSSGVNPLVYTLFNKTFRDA
measure_name: pKi
# pKi is unitless: minus log10 of the molar concentration; print number only

What the record says about COc1ccccc1N1CCN(CCCCn2ncc(=O)n(C)c2=O)CC1 : pKi is 7.13
